Data provenance: patent US9745324B2

- measurement-target: purified human autoBACE-2 (Homo sapiens, UniProt Q9Y5Z0)
- Sequence (Q9Y5Z0 63-518 limits assumed): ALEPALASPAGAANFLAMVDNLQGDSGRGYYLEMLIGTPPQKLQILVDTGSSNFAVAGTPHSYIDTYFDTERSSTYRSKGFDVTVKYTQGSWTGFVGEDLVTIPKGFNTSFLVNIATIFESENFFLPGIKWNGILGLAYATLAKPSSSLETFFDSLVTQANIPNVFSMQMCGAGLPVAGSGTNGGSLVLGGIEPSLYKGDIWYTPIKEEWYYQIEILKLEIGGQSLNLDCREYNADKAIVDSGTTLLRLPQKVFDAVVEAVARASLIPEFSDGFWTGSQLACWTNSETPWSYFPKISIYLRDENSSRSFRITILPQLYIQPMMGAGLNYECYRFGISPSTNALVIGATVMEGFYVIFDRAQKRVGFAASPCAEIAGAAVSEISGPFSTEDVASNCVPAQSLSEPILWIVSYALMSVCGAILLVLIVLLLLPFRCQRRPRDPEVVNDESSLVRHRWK
- protocol-text: BACE-2 Assay (BACE-HTRF assay)
- Format: biochemical
- condition-summary: Ki calculated from IC50 using the Cheng-Prusoff equation; QSY7-EISEVNLDAEFC-Eu-amide substrate, pH 5.0; read-out: BACE2 Ki
The reader will find reported Ki values listed item by item below.
Units required after the number.

Known results for compounds:
[[record]]
compound = "COc1cnc(C(=O)Nc2ccc(F)c([C@]3(C)CN(C)S(=O)(=O)C(C)(C)C(=N)N3)c2)cn1 [Example 1]"
quantity_measured = "Ki"
test_value = "102 nM"

[[record]]
compound = "COc1ccc(C(=O)Nc2ccc(F)c([C@]3(C)CN(C)S(=O)(=O)C(C)(C)C(=N)N3)c2)nc1 [Example 6]"
quantity_measured = "Ki"
test_value = "44 nM"

[[record]]
compound = "CN1C[C@@](C)(c2cc(NC(=O)c3cn4ccc(C#N)cc4n3)ccc2F)NC(=N)C(C)(C)S1(=O)=O [Example 17]"
quantity_measured = "Ki"
test_value = "7490 nM"

[[record]]
compound = "CN1C[C@@](C)(c2cc(NC(=O)C3CC3)ccc2F)NC(=N)C(C)(C)S1(=O)=O [Example 33]"
quantity_measured = "Ki"
test_value = "1030 nM"

[[record]]
compound = "Cc1cc(C(=O)Nc2ccc(F)c([C@]3(C)CN(C)S(=O)(=O)C(C)(C)C(=N)N3)c2)no1 [Example 19]"
quantity_measured = "Ki"
test_value = "347 nM"


Checklist item: Ki tested on purified human autoBACE-2 (Homo sapiens, UniProt Q9Y5Z0), entry CN1C[C@@](C)(c2cc(NC(=O)c3cnccn3)ccc2F)NC(=N)C(C)(C)S1(=O)=O [Example 13] , value? 110 nM

Ki of CN1C[C@@](C)(c2cc(NC(=O)c3ccc(OCF)cn3)ccc2F)NC(=N)C(C)(C)S1(=O)=O [Example 38] on purified human autoBACE-2 (Homo sapiens, UniProt Q9Y5Z0)? 46 nM

---

Listed compounds paired with reported log10 Ki
- measurement-target: purified human autoBACE-2 (Homo sapiens, UniProt Q9Y5Z0)
- protocol-text: BACE-2 Assay (BACE-HTRF assay)
- Assay type: biochemical
- condition-summary: Ki calculated from IC50 using the Cheng-Prusoff equation; QSY7-EISEVNLDAEFC-Eu-amide substrate, pH 5.0; read-out: BACE2 Ki
Recorded Ki (log10, nM)

Solved cases below.
[[record]]
smiles_string = "CN1C[C@@](C)(c2cc(NC(=O)c3ncc(C(F)(F)F)cn3)ccc2F)NC(=N)C(C)(C)S1(=O)=O"
quantity_measured = "log10 Ki"
test_value = 2.31

[[record]]
smiles_string = "Cc1nc(C(=O)Nc2ccc(F)c([C@]3(C)CN(C)S(=O)(=O)C(C)(C)C(=N)N3)c2)c(C)o1"
quantity_measured = "log10 Ki"
test_value = 1.73

[[record]]
smiles_string = "CN1C[C@@](C)(c2cc(NC(=O)CC3CC3)ccc2F)NC(=N)C(C)(C)S1(=O)=O"
quantity_measured = "log10 Ki"
test_value = 3.34

[[record]]
smiles_string = "COc1cnc(C(=O)Nc2ccc(F)c([C@]3(C)CN(C)S(=O)(=O)C(C)(C)C(=N)N3)c2)c(C)c1"
quantity_measured = "log10 Ki"
test_value = 1.51

[[record]]
smiles_string = "CN1C[C@@](C)(c2cc(NC(=O)C(F)F)ccc2F)NC(=N)C(C)(C)S1(=O)=O"
quantity_measured = "log10 Ki"
test_value = 2.55


# log10 Ki lookup, item Cc1cc(C(=O)Nc2ccc(F)c([C@]3(C)CN(C)S(=O)(=O)C(C)(C)C(=N)N3)c2)on1 3.01

Entry CN1C[C@@](C)(c2cc(NC(=O)c3cnc(OCC(F)(F)F)cn3)ccc2F)NC(=N)C(C)(C)S1(=O)=O : reported log10 Ki = ? 2.23
